- protocol details: qHTS assay to test for compound auto fluorescence at 535 nm (green) in HepG2 cells (AID 720675); further: on the % scale 0 is the no-effect control and ±100 the full control effect
- test context: green autofluorescence 485/535 nm, 1 h; series mostly up to 91.3 µM
The source made the active and inactive calls. The call rests on the fitted dose curve; in most records, active means well fitted curve in the direction sought with a large enough effect in the repeat runs; inconclusive means weak or mixed curves; inactive means flat fitted curve, though single readings scatter.
measured parameter: fluorescence, % of fluorescein control

{"columns": ["compound", "measured parameter", "experimental result"],
 "data": [
  ["CC[N+](CC)(CCNC(=O)C(=O)NCC[N+](CC)(CC)Cc1ccccc1Cl)Cc1ccccc1Cl", "fluorescence, % of fluorescein control", "inactive"],
  ["CC(CCC(=O)O)C(=O)O (stereo not drawn)", "fluorescence, % of fluorescein control", "inactive"],
  ["CN1C(=O)N(c2ccccc2Br)Cc2cnc(Nc3ccc4c(c3)OCC(CO)O4)nc21 (stereo not drawn)", "fluorescence, % of fluorescein control", "inactive"],
  ["CC(C)c1nc(CN(C)C(=O)N[C@H](C(=O)N[C@@H](Cc2ccccc2)C[C@H](O)[C@H](Cc2ccccc2)NC(=O)OCc2cncs2)C(C)C)cs1", "fluorescence, % of fluorescein control", "inactive"],
  ["COC(=O)C1=C(C)NC(C)=C(C(=O)O[C@@H]2CCCN(Cc3ccccc3)C2)[C@@H]1c1cccc([N+](=O)[O-])c1", "fluorescence, % of fluorescein control", "inactive"],
  ["Brc1cc(Br)c(Oc2cc(Br)c(Br)cc2Br)cc1Br", "fluorescence, % of fluorescein control", "inactive"],
  ["Cc1[nH]cnc1CN1CCc2c(c3ccccc3n2C)C1=O", "fluorescence, % of fluorescein control", "inactive"],
  ["C/C=C/C=C/C=O", "fluorescence, % of fluorescein control", "inactive"],
  ["CN(C(=O)CN(CCO)CC(=O)N(C)C(C)(C)Cc1ccccc1)C(C)(C)Cc1ccccc1", "fluorescence, % of fluorescein control", "-0.0053% [at 18.6 µM] (inactive)"],
  ["C[C@]12CC[C@@H]3c4ccc(O)cc4CC[C@H]3[C@@H]1CC[C@@H]2OC(=O)CCC1CCCC1", "fluorescence, % of fluorescein control", "inactive"],
  ["CCCCCCCCCI", "fluorescence, % of fluorescein control", "inactive"],
  ["N#[N+]c1ccc2c(S(=O)(=O)[O-])cccc2c1O", "fluorescence, % of fluorescein control", "inactive"],
  ["CC(C)(O)c1ccc(CNC(=O)c2cccnc2Oc2ccc3nonc3c2)cc1", "fluorescence, % of fluorescein control", "inactive"],
  ["CCCCCCCC/C=C\\CCCCCCCCCCCC(=O)O", "fluorescence, % of fluorescein control", "inactive"],
  ["O=C1CCCCCCCCCCOCCCCO1", "fluorescence, % of fluorescein control", "inactive"],
  ["CCC(C)COC(=O)CC(C)C (stereo not drawn)", "fluorescence, % of fluorescein control", "inactive"],
  ["OC[C@H]1O[C@@H](n2cnc3c(=S)nc[nH]c32)[C@H](O)[C@@H]1O", "fluorescence, % of fluorescein control", "inactive"],
  ["CC(C)Nc1cccnc1N1CCN(C(=O)c2cc3cc(NS(C)(=O)=O)ccc3[nH]2)CC1", "fluorescence, % of fluorescein control", "inactive"],
  ["CCCCOc1ccc(OCCCN2CCOCC2)cc1", "fluorescence, % of fluorescein control", "-0.0009% [at 18.6 µM] (inactive)"],
  ["CC1=C(Br)C(=O)C(Br)=C/C1=C(/c1ccccc1S(=O)(=O)O)c1cc(Br)c(O)c(Br)c1C", "fluorescence, % of fluorescein control", "inactive"],
  ["Cc1ccco1", "fluorescence, % of fluorescein control", "inactive"],
  ["CCOc1ccc(Cc2nccc3cc(OCC)c(OCC)cc23)cc1OCC", "fluorescence, % of fluorescein control", "0.127% [at 18.6 µM] (inactive)"],
  ["Oc1cccc(Nc2ccccc2)c1", "fluorescence, % of fluorescein control", "inactive"],
  ["C[C@@H]1CC(=O)NN=C1c1ccc(NN=C(C#N)C#N)cc1", "fluorescence, % of fluorescein control", "inactive"],
  ["CCOC(C)=O", "fluorescence, % of fluorescein control", "inactive"],
  ["O=C1c2ccccc2C(=O)C1(O)O", "fluorescence, % of fluorescein control", "inactive"],
  ["COC(=O)CS", "fluorescence, % of fluorescein control", "inactive"],
  ["O=C1c2ccccc2C(=O)C1c1ccc(Br)cc1", "fluorescence, % of fluorescein control", "inactive"]
]}
